Recorded GI50, one value per entry.
Tested on: TK-10 renal
Test: NCI tumour cell line growth inhibition, 48 h

{"columns": ["MOLECULE", "GI50"],
 "data": [
  ["Nc1nc(N)c2c(n1)NC(c1ccccc1)C1CCc3ccccc3C1=N2 (stereo not given)", "3.01 µM"],
  ["O=[n+]1c2ccccc2n([O-])c2cc(Cl)ccc21", "4.96 µM"],
  ["Cc1cc(N2CCCC2)nc(NCc2cc(Nc3ccnc4cc(Cl)ccc34)ccc2F)n1", "2.14 µM"],
  ["CCc1cc2ncc(CN3CCN(c4ccc(C(=O)NC)nc4)CC3)cc2[nH]c1=O", "43.1 µM"],
  ["C[CH2][Ge]([CH2]C)([CH2]C)[O]C(=O)CCC(=O)[O][Ge]([CH2]C)([CH2]C)[CH2]C", "> 100 µM"]
]}

====

System: TK-10 renal
Assay: NCI tumour cell line growth inhibition, 48 h
Where a SMILES comes first, the peptide text is derived from it.
MEASURE: TGI

{"columns": ["COMPOUND", "MEASURE", "RESULT_VALUE"],
 "data": [
  ["COC1C(OC(=O)/C=C/C=C/C=C/C=C\\C(=O)O)CCC2(CO2)C1C1(C)OC1CC=C(C)C (configuration not stated)", "TGI", "> 200 µM"],
  ["Cc1cc(C(=O)NC(CCC(=O)O)C(=O)O)sc1CCC1CNc2nc(N)[nH]c(=O)c2C1 (configuration not stated)", "TGI", "> 100 µM"],
  ["COc1cc(S(=O)(=O)Nc2ccc(-c3csc(N4C(=O)C(Cl)C4c4ccccc4)n3)cc2)ccc1Cl (configuration not stated)", "TGI", "> 100 µM"],
  ["CC(C)CC(NC(=O)C(Cc1ccccc1)NC(=O)C(Cc1c[nH]c2ccccc12)NC(=O)CNC(=O)C(N)Cc1ccc(O)cc1)C(=O)O (configuration not stated) (H-YGWFL-OH; configuration not given here)", "TGI", "> 100 µM"],
  ["O=C(N/N=C/c1ccccc1O)c1ccccc1Nc1ccccc1C(=O)N/N=C/c1ccccc1O", "TGI", "> 100 µM"],
  ["CCC(C)C1NC(=O)C2CCCN2C(=O)CNC(=O)C(C)NC(=O)C(Cc2ccccc2)NC(=O)C(C(C)C)NC1=O (configuration not stated) (cyclo(GPIVFA); configuration not given here)", "TGI", "> 100 µM"],
  ["CCC(=O)Nc1ccccc1C#C/C=C\\C#Cc1ccccc1C(F)(F)F", "TGI", "> 50 µM"]
]}

====

// reported TGI per item
Tested on: NCI-H522 lung
Experiment: NCI tumour cell line growth inhibition, 48 h
Where a SMILES comes first, the peptide text is derived from it. [ ]: non-standard residue; d: D form. The star is where a group is joined. ξ: configuration not given here. ξF = NC(Cc1ccccc1)C(=O)O; Cbz = O=C(OCc1ccccc1)*; Aib = CC(C)(N)C(=O)O

{"columns": ["MOLECULE", "MEASURED_ON", "CMP", "TGI / µM"],
 "data": [
  ["COC(=O)C(C)(C)NC(=O)C(Cc1ccccc1)NC(=O)C(C)(C)NC(=O)OCc1ccccc1 (stereo not given) (Cbz-[Aib]-[ξF]-[Aib]-OMe)", "NCI-H522 lung", ">", 100],
  ["CC(C)CC(NC(=O)C(Cc1ccccc1)NC(=O)C(Cc1c[nH]c2ccccc12)NC(=O)CNC(=O)C(N)Cc1ccc(O)cc1)C(=O)O (stereo not given) (H-YGWFL-OH; configuration not given here)", "NCI-H522 lung", "=", 95.6],
  ["COC(=O)C1C=NNC1C(=O)OC (stereo not given)", "NCI-H522 lung", ">", 100],
  ["COc1cc(-c2n/c(=C\\c3c(O)[nH]c4cc(Cl)ccc34)cc3c2=Nc2ccccc2-3)cc(OC)c1OC", "NCI-H522 lung", "=", 18.4],
  ["C[CH2][Ge]([CH2]C)([CH2]C)[O]C(=O)CCC(=O)[O][Ge]([CH2]C)([CH2]C)[CH2]C", "NCI-H522 lung", ">", 100]
]}

====

Tested on: OVCAR-5 ovarian
Assay: NCI tumour cell line growth inhibition, 48 h

{"columns": ["COMPOUND", "TGI"],
 "data": [
  ["CC1=C(Cl)C=CP(=O)(OC(C)C)C1 (stereo unspecified)", "> 100 µM"],
  ["C=C(C)C(O)C(O)C[C@@H](C)C1CC[C@]23C[C@]12CCC1[C@@]2(C)CCC(OC(C)=O)C(C)(C)C2CC(OC2OC(CO)C(O)C(O)C2O)[C@]13C (stereo partly specified)", "45.9 µM"],
  ["Nc1c(-c2ccccc2[N+](=O)[O-])nc2ccccn12", "> 100 µM"],
  ["COc1cc(-c2n/c(=C\\c3c(O)[nH]c4cc(Cl)ccc34)cc3c2=Nc2ccccc2-3)cc(OC)c1OC", "> 100 µM"],
  ["NC(N)=Nc1nc2ccc([N+](=O)[O-])cc2[nH]1", "> 100 µM"],
  ["C[n+]1c(-c2ccc(/C=N/NC(=O)c3ccc(C(=O)N/N=C/c4ccc(-c5cn6ccccc6[n+]5C)cc4)cc3)cc2)cn2ccccc21", "> 1000 µM"],
  ["CC(=O)C(CN(C)C)C(c1ccccc1)c1c(O)c2ccccc2oc1=O (stereo unspecified)", "> 100 µM"],
  ["CCOC(=O)[C@H]1Nc2ccc([N+](=O)[O-])cc2C2c3ccccc3CC21 (stereo partly specified)", "70.4 µM"],
  ["C/C(=N\\N=C(\\[Se])N(C)C)c1ccccn1", "7.31 µM"],
  ["CCCCCCCCCCCCOc1ccc(/C=C/C2=[N+](CCCl)CCO2)cc1", "> 100 µM"],
  ["O=C1c2ccccc2CC12Cc1ccccc1C2", "> 100 µM"],
  ["CC1(S)CC2C(CC1Sc1ccccc1)C2(C)C (stereo unspecified)", "> 100 µM"],
  ["CCCCNC(=O)Oc1ccc(/C(=C(/C)Cc2ccc(OC)cc2)c2ccc(OCCN3CCCC3)cc2)cc1", "12.7 µM"],
  ["CC(C)CC(Nc1c(O)ccc2ccccc12)C(=O)O (stereo unspecified)", "> 100 µM"],
  ["O=C1C(=O)c2ccccc2C(O)=C1CCCc1ccc(C2CCCCCC2)cc1", "> 100 µM"],
  ["O=C(O)CCc1c2ccc(=O)c(O)c-2oc2c(O)c(O)ccc12", "> 100 µM"],
  ["COc1cc2ncnc(Nc3ccc4c(cnn4Cc4ccccc4)c3)c2cc1OC", "> 25 µM"],
  ["CCCCNC(=O)c1cc(NCc2cc(O)ccc2O)ccc1O", "32 µM"],
  ["N#Cc1c(O)cc(=O)n2c1[nH]c1ccccc12", "> 100 µM"],
  ["Cc1nc2ccc(NC3OC(CO)C(O)C(O)C3O)cc2c(=O)n1-c1ccccc1 (stereo unspecified)", "> 100 µM"],
  ["O=C(CN1CCOCC1)c1ccc2c(c1)oc(=O)n2CCN1CCCC1", "> 100 µM"]
]}

====

Test system: PC-3 prostate
Test: NCI tumour cell line growth inhibition, 48 h
Where a SMILES comes first, the peptide text is derived from it. [ ]: non-standard residue; d: D form. The star is where a group is joined. ξ: configuration not given here. ξF = NC(Cc1ccccc1)C(=O)O; Cbz = O=C(OCc1ccccc1)*; Aib = CC(C)(N)C(=O)O

{"columns": ["COMPOUND", "TGI"],
 "data": [
  ["COc1cc(Nc2nnc3n2S(=O)(=O)c2cc(C)c(Cl)cc2S3)cc(OC)c1", "47 µM"],
  ["COc1ccc(N=Nc2c(C)c(C#N)c(=S)n(C3OC(CO)C(O)C(O)C3O)c2C)cc1 (stereo unspecified)", "> 100 µM"],
  ["CN(C)CCn1c(=O)c2ccc3c4c(nn3CCN(C)C)c3cc([N+](=O)[O-])ccc3n(c1=O)c24", "0.576 µM"],
  ["CCOC(=O)c1nc2ccccc2nc1Oc1cc(OC)c(OC)c(OC)c1", "> 100 µM"],
  ["CN(C)C=NCCN1CCOCC1", "> 100 µM"],
  ["O=C(NC(Nc1ccc(F)cc1)(C(F)(F)F)C(F)(F)F)C(C(F)(F)F)C(F)(F)F", "> 100 µM"],
  ["Oc1ccccc1C1=NOC(c2ccc(C(F)(F)F)cc2)C1 (stereo unspecified)", "> 50 µM"],
  ["COC(=O)C(CBr)CBr", "23 µM"],
  ["CCOC(=O)/C=C/[C@H](O)[C@@H](O)/C=C/C(=O)OCC", "> 100 µM"],
  ["CN(C)CC1CCCCCCCCCC(CN(C)C)C1=O (stereo unspecified)", "19.4 µM"],
  ["Cc1ccc(C2=C(c3ccc(C)cc3)C3(c4ccc(C)cc4)C4C(=O)c5ccccc5C(=O)C4C2(c2ccc(C)cc2)S3=O)cc1 (stereo unspecified)", "> 100 µM"],
  ["Cc1ccc(N2CCN(CCC(=O)O)CC2)cc1", "> 100 µM"],
  ["CCCCN(CCCC)CCC(O)c1cc2c(Cl)cc(Cl)cc2c2cc(C(F)(F)F)ccc12 (stereo unspecified)", "22.2 µM"],
  ["NC(Cc1ccc(S(=O)(=O)O)cc1)C(=O)NC(Cc1ccc(S(=O)(=O)O)cc1)C(=O)NC(Cc1ccc(S(=O)(=O)O)cc1)C(=O)O (stereo unspecified)", "> 100 µM"],
  ["Cc1ccn2c(CCc3nnc4cc(C)ccn34)nnc2c1", "> 100 µM"],
  ["COc1cc(-c2cc(/C=C/C(=O)c3ccc(Cl)c(Cl)c3)[nH]n2)cc(OC)c1OC", "> 100 µM"],
  ["Cc1cc(C(=O)O)c(C)n1-c1cccc(C(=O)O)c1", "> 100 µM"],
  ["NC(N)=Nc1nc2ccc([N+](=O)[O-])cc2[nH]1", "> 100 µM"],
  ["CCC(=O)Nc1ccccc1C#C/C=C\\C#Cc1ccccc1C(F)(F)F", "> 50 µM"],
  ["CC1Cc2cc(O)c(O)cc2-c2cc(O)c(O)cc2CC1C (stereo unspecified)", "61.5 µM"],
  ["O=[N+]([O-])/C(C(Cl)=C(Cl)Cl)=C(\\Nc1ccccc1)n1nnc2ccccc21", "> 100 µM"],
  ["N#Cc1nc(-c2ccccn2)oc1N", "> 100 µM"],
  ["CCOC(=O)c1c(C)nc2c(c1N)CC(=O)N2CCc1ccccc1", "24.2 µM"],
  ["COc1cc(-c2n/c(=C\\c3c(O)[nH]c4cc(Cl)ccc34)cc3c2=Nc2ccccc2-3)cc(OC)c1OC", "58.4 µM"],
  ["CC(C)CC(NC(=O)C(Cc1ccccc1)NC(=O)C(Cc1c[nH]c2ccccc12)NC(=O)CNC(=O)C(N)Cc1ccc(O)cc1)C(=O)O (stereo unspecified) (H-YGWFL-OH; configuration not given here)", "> 100 µM"],
  ["O=C(CN1CCOCC1)c1ccc2c(c1)oc(=O)n2CCN1CCCC1", "> 100 µM"],
  ["O=C1NC(=O)/C(=C/c2ccc(S(=O)(=O)N/N=C\\C(O)C(O)C(O)C(O)CO)cc2)N1 (stereo unspecified)", "> 100 µM"],
  ["COC(=O)C(C)(C)NC(=O)C(Cc1ccccc1)NC(=O)C(C)(C)NC(=O)OCc1ccccc1 (stereo unspecified) (Cbz-[Aib]-[ξF]-[Aib]-OMe)", "> 100 µM"],
  ["Cc1cc2nc3cc(C)c(N)cc3[n+](-c3ccccc3)c2cc1N", "> 100 µM"],
  ["Oc1cccc2cc(Br)cnc12", "> 100 µM"],
  ["O=C1NC(N2CCCCC2)=N/C1=C\\c1ccccc1O", "> 100 µM"]
]}

Where these numbers come from: PubChem BioAssay (NCI)
